A compilation of pIC50 values for Aldo-keto reductase family 1 member A1 (Rattus norvegicus, UniProt P51635) from the published literature.
Give bare numbers, as −log10 of the molar value.

Some compounds with known pIC50 results, for comparison:
Compound	Reported result
O=C1NS(=O)(=O)CC12c1ccccc1-c1ccc(F)cc12 (stereo not given)	5.68
COc1ccc(S(=O)(=O)N2C(=O)NC3(CCCc4ccccc43)C2=O)cc1 (stereo not given)	4.59
O=C1CC2(c3ccccc3-c3ccc(Cl)cc32)S(=O)(=O)N1 (stereo not given)	6.98
COc1ccc(/C=C/c2nc3ccccc3n(CC(=O)NS(=O)(=O)C(F)(F)F)c2=O)cc1OC	4.37
COc1cccc2c1OCC(C(=O)N[C@H](c1ncc(-c3ccc(Br)cc3)[nH]1)C(C)C)=C2	5.47
COc1ccc(/C=C/c2cccc3c2oc(=O)n3CC(=O)O)cc1	5.20

I have 2 compounds here; please give me pIC50 for each one.
1. O=S(=O)(c1ccccc1)N(Cc1ccc(Br)cc1F)c1cc(F)c(O)c(F)c1
2. O=C(O)Cn1c(=O)oc2c(-c3ccc(-c4ccc5ccccc5c4)cc3)cccc21

1: 4.92; 2: 5.05

* * *

A compilation of IC50 values for Aldo-keto reductase family 1 member A1 (Rattus norvegicus, UniProt P51635) from the published literature.

Some compounds with known IC50 results, for comparison:
Smiles repr	Target desc	IC50
COc1ccc(-c2cc(=O)n3cccc(O)c3n2)cc1	Aldo-keto reductase family 1 member A1 (Rattus norvegicus, UniProt P51635)	> 10 µM
O=C(O)Cn1ccc(=O)n(Cc2ccc(Cl)c([N+](=O)[O-])c2)c1=O	Aldo-keto reductase family 1 member A1 (Rattus norvegicus, UniProt P51635)	> 100 µM

Now, please, on to the next compound.
Notebook entry, Aldo-keto reductase family 1 member A1 (Rattus norvegicus, UniProt P51635) assay: IC50 of `COc1ccc(C(=O)c2cccn2-c2cnn(O)c2)cc1` = ?
> 100 µM

* * *

A compilation of IC50 values for Aldo-keto reductase family 1 member A1 (Rattus norvegicus, UniProt P51635) from the published literature.

Some molecules with known IC50 results, for comparison:
Molecule	Reported result
O=C(O)Cn1ccc(=O)n(Cc2nc3c(Cl)cccc3s2)c1=O	> 100 µM
O=C(O)/C=C1\CN(Cc2ccc(Br)cc2F)S(=O)(=O)c2ccccc21 (mixture of isomers)	> 10 µM

I have 2 molecules here; please give me IC50 for each one.
1. O=C(O)Cn1ccc(C(=O)c2ccc(-c3ccccc3)cc2)c1
2. CC(C(=O)O)N(OCc1ccccc1Cl)C(=O)c1ccccc1 (configuration not stated)

1. 52.5 µM
2. > 100 µM

I have 2 molecules here; please give me IC50 for each one.
1. O=C(O)Cn1cccc1C(=O)c1ccc(-c2ccccc2)cc1
2. CC(C(=O)O)N(OCc1ccc(Cl)cc1)C(=O)c1ccccc1 (configuration not stated)

> 100 µM
> 100 µM

Can you share its IC50? I mean this molecule: `COc1ccc(-c2cc(=O)n3c(O)cccc3n2)cc1`
> 10 µM

* * *

A compilation of pIC50 values for Aldo-keto reductase family 1 member A1 (Rattus norvegicus, UniProt P51635) from the published literature.
pIC50: −log10 of the molar value.

I have 6 compounds here; please give me pIC50 for each one.
1. O=C(c1ccc(OC(F)(F)F)cc1)c1ccn(-c2ccc(O)c(F)c2)c1
2. CC(C(=O)O)N(OCc1cccc(Cl)c1)C(=O)c1ccccc1 (stereo unspecified)
3. O=C(O)CN1C(=O)C(=O)N(Cc2ccc(Cl)c(Cl)c2)C1=O
4. O=C(O)Cn1cccc1C(=O)c1ccccc1
5. O=c1cc(Cc2ccccc2)nc2cccc(O)n12
6. O=C(O)Cn1ccc(C(=O)c2ccccc2)c1

["< 4.00", "< 4.00", "< 4.00", "< 4.00", "< 5.00", "< 4.00"]
